Catalogue of sequences with associated % activity
TESTED_TARGET: CaMKIIγ(h) (Homo sapiens)
Sequence (Q13555 whole entry): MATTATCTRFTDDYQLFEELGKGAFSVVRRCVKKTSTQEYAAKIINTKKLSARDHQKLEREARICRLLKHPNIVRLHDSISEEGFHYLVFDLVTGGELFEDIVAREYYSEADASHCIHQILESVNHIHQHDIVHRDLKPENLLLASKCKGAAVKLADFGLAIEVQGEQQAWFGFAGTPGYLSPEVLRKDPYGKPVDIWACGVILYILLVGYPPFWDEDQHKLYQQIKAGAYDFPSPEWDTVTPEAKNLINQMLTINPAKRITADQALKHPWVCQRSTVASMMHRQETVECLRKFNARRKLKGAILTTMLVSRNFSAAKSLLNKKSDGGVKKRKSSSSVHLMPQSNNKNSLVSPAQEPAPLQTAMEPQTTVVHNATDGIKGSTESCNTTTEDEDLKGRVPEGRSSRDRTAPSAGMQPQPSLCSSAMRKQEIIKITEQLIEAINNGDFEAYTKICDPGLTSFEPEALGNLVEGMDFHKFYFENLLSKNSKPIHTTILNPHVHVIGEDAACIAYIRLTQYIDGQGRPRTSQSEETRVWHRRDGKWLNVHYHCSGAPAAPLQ
PROCEDURE_SUMMARY: Kinase Profiling Assay
Type: biochemical
TEST_CONTEXT: 100 μM
RECORDED_ENDPOINT: % activity

- SEQ: "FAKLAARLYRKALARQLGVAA [MMI-0300]"
  RESULT: "5%"
- SEQ: "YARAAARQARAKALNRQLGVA [MMI-0200]"
  RESULT: "94%"
- SEQ: "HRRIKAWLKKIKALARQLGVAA [MMI-0500]"
  RESULT: "3%"
- SEQ: "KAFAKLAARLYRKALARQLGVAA [MMI-0400]"
  RESULT: "3%"
